# experimentalSystem: Ataxin-2 (Homo sapiens)
# protocolSummary: qHTS for Inhibitors of ATXN expression.
# Assay type: functional
The campaign covered roughly 400,000 compounds. About 2,100 (0.53%) were called active. Another 14% or so got no clear call; they are omitted. No rule for the calls is given here. The full list was thinned out, with actives kept by preference.
Respond using exactly one of the listed classes: active, inactive

Please state the recorded outcome for this molecule: "O=C(COC(=O)c1ccc(Cl)nc1)Nc1ncc(Cl)cc1Cl"
inactive

Record lookup: outcome of this test for "Fc1ccc2cnc(-c3ccccc3)c(-c3cc(C(F)(F)F)cc(C(F)(F)F)c3)c2c1" ?
active

State the result this test recorded for "O=c1c2ccccc2c(-c2ccc(F)cc2)nn1-c1ccc(C(F)(F)F)cc1" .
inactive

Which outcome was entered for the molecule "O=C(Nc1cccc(S(=O)(=O)N2CCCCCC2)c1)c1ccc(O)nc1" in this test?
inactive

Just curious, what result did COc1ccc(CNC(=O)C[S+]([O-])Cc2nc(-c3ccc(C)cc3)oc2C)cc1 (stereo unspecified) get here?
inactive

Call for entry "Cn1c2ccccc2c2nnc(N/N=C/c3ccc(O)cc3)nc21" :
inactive

Each molecule tested received a call. Report the one for "CC(=O)c1sc(N/N=C/c2ccc(C(C)C)cc2)nc1C" .
inactive

Each molecule tested received a call. Report the one for "O=C(COC(=O)c1cnc(Cl)c(Cl)c1)c1ccc(F)cc1" .
inactive

What call does the record list for "Cc1ccc(C(=O)Sc2cccccc2=O)cc1" ?
active

// param item: "CCOc1cc(/C=N/Nc2nc(-c3cccc(S(=O)(=O)N4CCCC4)c3)cs2)ccc1O" ; yields the recorded call
active

Status in this test for "COc1cc(/C=N/NC(=O)CCC(=O)Nc2ccc(F)cc2)ccc1O" ?
inactive
